target desc: ULK2 (h) (Homo sapiens)
Sequence (Q8IYT8 1-1036): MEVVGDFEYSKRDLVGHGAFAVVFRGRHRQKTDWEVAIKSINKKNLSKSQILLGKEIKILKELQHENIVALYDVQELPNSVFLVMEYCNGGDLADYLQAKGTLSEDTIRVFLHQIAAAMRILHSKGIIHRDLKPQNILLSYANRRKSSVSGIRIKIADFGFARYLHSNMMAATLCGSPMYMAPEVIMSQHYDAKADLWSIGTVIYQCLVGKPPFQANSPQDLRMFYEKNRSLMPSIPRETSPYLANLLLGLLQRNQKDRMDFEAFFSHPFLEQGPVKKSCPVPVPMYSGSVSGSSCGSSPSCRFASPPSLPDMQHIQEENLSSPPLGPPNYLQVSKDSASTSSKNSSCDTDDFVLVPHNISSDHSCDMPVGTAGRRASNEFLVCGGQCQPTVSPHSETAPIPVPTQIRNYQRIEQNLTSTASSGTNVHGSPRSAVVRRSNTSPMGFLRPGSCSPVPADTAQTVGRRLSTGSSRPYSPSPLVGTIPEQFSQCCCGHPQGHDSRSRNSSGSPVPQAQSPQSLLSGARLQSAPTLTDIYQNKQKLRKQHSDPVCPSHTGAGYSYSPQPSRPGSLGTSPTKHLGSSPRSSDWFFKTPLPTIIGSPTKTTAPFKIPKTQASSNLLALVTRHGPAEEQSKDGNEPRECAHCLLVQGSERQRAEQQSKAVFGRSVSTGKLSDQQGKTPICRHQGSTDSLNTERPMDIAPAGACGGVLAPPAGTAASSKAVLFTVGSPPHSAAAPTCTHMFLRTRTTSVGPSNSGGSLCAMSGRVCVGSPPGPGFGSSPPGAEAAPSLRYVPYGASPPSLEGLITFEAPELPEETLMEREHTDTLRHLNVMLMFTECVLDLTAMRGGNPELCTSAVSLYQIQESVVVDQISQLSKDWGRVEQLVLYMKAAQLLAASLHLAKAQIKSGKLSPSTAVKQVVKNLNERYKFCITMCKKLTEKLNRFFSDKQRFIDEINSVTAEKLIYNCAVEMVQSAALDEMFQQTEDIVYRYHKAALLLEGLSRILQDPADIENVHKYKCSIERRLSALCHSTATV
method summary: Kinase Profiling Assay
Format: biochemical
run conditions: 100 μM
quantity: % activity (%)
State the answer as a number, implicitly in %.

Use these answered entries as a reference point.
{"sequence data": "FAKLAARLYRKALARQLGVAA [MMI-0300]", "target desc": "ULK2 (h) (Homo sapiens)", "% activity (%)": 122}
{"sequence data": "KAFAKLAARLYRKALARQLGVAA [MMI-0400]", "target desc": "ULK2 (h) (Homo sapiens)", "% activity (%)": 131}
{"sequence data": "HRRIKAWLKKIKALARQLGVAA (Mammalian) [MMI-0500]", "target desc": "ULK2 (h) (Homo sapiens)", "% activity (%)": 124}

Which value of % activity has been reported for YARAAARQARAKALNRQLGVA (Mammalian) [MMI-0200] in the records?
132

###

Below, each entry is listed with its recorded % activity.
target desc: Lyn (h) (Homo sapiens, UniProt P07948)
Sequence (P07948 whole entry): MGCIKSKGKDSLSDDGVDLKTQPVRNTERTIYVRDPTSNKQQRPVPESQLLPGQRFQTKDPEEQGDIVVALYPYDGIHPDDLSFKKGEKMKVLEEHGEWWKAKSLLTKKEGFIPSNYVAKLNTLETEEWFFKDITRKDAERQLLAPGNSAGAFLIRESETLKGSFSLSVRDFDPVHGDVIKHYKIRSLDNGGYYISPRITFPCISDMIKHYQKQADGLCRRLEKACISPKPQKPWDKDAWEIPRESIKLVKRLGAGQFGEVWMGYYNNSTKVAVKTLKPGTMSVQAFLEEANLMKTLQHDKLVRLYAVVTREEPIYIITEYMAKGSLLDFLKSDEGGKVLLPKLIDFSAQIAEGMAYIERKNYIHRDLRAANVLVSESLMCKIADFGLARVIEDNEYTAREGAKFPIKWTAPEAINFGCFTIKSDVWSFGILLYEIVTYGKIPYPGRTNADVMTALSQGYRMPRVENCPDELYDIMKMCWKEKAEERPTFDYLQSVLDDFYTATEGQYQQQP
method summary: Kinase Profiling Assay
Format: biochemical
run conditions: 100 μM
Field: numeric (%). Do not append units.

Sample records with % activity:
{"sequence data": "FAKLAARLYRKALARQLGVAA [MMI-0300]", "target desc": "Lyn (h) (Homo sapiens, UniProt P07948)", "quantity": "% activity", "result": 69}
{"sequence data": "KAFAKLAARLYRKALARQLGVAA [MMI-0400]", "target desc": "Lyn (h) (Homo sapiens, UniProt P07948)", "quantity": "% activity", "result": 3}
{"sequence data": "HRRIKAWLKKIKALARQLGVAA (Mammalian) [MMI-0500]", "target desc": "Lyn (h) (Homo sapiens, UniProt P07948)", "quantity": "% activity", "result": 31}

Consider the additional sequence presented here.
Entry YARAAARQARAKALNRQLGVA (Mammalian) [MMI-0200] , system Lyn (h) (Homo sapiens, UniProt P07948): what % activity was measured?
98

###

target desc: DYRK2 (h) (Homo sapiens, UniProt Q92630)
Construct: purchased Millipore
Sequence (Q92630 1-601): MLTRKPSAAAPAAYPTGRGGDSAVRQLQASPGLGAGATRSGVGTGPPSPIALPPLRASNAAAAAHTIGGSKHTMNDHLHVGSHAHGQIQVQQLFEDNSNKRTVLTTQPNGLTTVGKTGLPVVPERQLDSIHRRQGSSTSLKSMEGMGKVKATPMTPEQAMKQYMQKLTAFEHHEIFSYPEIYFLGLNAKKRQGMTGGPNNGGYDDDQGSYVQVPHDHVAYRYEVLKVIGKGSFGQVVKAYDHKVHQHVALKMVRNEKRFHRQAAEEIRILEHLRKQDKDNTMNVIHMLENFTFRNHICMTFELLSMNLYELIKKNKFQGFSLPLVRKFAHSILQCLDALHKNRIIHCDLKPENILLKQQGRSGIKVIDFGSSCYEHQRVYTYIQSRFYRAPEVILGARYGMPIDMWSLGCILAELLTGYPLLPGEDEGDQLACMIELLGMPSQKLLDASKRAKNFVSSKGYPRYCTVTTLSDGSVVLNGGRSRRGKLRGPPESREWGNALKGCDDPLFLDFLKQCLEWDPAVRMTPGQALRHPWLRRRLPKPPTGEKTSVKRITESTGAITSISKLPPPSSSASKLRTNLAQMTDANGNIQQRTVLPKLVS
method summary: Kinase Profiling Assay
Format: biochemical
run conditions: 100 μM
quantity: % activity (%)
Hi! Could you send only the number? It should be in %, unit omitted.

{"sequence data": "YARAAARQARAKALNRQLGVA (Mammalian) [MMI-0200]", "units": "%", "% activity": 142}

Sample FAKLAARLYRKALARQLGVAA [MMI-0300] — what was its % activity?
155

Please do the same for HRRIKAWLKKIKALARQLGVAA (Mammalian) [MMI-0500] as well.
127

Then what about the sequence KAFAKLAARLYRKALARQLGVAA [MMI-0400] ?
195

###

target desc: ASK1 (h) (Homo sapiens)
Sequence (Q99683 1-1374): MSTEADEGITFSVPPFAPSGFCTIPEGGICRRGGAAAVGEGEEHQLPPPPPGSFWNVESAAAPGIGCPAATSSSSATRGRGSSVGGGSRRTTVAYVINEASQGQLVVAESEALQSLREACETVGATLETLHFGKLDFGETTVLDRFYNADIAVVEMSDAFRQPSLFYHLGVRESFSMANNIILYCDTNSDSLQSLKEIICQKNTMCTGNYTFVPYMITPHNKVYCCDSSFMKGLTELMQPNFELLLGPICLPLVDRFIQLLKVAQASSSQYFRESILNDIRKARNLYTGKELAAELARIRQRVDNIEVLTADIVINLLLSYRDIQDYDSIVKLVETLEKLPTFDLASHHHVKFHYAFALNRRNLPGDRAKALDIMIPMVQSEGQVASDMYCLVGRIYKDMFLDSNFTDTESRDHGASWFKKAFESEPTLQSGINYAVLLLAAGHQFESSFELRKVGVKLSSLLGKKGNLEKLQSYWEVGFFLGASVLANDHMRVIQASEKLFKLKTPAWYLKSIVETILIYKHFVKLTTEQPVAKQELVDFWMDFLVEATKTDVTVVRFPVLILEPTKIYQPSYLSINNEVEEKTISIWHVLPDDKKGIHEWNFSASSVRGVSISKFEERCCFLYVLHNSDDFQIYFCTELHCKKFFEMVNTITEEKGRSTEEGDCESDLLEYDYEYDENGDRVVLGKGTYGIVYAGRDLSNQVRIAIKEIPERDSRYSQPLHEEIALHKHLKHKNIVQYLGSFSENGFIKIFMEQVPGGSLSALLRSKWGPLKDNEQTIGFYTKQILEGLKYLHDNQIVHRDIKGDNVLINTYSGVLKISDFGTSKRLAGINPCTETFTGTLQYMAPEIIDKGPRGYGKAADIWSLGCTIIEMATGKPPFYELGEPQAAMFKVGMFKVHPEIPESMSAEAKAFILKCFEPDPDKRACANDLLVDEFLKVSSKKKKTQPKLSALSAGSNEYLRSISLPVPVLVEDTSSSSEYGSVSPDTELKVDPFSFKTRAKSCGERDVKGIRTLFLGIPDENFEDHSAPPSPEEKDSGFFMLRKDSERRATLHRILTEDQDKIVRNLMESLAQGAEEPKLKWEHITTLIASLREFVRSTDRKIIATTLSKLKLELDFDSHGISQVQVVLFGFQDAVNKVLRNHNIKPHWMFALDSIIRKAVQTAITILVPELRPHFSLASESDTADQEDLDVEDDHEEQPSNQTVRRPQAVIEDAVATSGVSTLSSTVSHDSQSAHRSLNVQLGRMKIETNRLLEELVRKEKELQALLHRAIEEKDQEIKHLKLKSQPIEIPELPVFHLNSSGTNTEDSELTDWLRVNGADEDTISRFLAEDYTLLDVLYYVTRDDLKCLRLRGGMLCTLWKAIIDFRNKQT
method summary: Kinase Profiling Assay
Assay type: biochemical
run conditions: 100 μM
Method: Every kinase activity measurement was conducted in duplicate. Specifically, in these assays, a positively charged substrate is phosphorylated with a radiolabeled phosphate group from an ATP if the kinase is not inhibited by an inhibitor peptide. The positively charged substrate then is attracted to a negatively charged filter membrane, quantified with a scintillation counter, and compared to a 100% activity control. […]
List of % activity values.
Quick note: give the figure in %, leave out the unit.

Consider the worked cases shown below.
{"sequence data": "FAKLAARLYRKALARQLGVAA [MMI-0300]", "units": "%", "% activity": 80}
{"sequence data": "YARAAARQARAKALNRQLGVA (Mammalian) [MMI-0200]", "units": "%", "% activity": 101}

If you can, please state the reported % activity value of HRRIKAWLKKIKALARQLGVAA (Mammalian) [MMI-0500] .
−4

Would you mind doing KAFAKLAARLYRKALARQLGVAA [MMI-0400] as well?
69
